Provenance of the data: the supplement of paper PMC9170038

Test system: MS2 coat protein
Assay: apparent KD of MS2 coat protein; designed switch direction (-1 OFF switch, 1 ON switch): 1; higher = weaker reporter binding
Details: Eterna round: R95; input ligand: FMN 200 uM
Class boundaries, taken from values of apparent KD of MS2 coat protein, are as follows: lowest: < 40 nM; middle: ≥ 40 nM and < 200 nM; highest: ≥ 200 nM

Illustrative cases are given below, each with its answer.
Prompt line: The entry to classify is GCGGAACAUGAGGAUCACCCAUGUAAAGGGUGUAAAGGAUAUUAUUGGGAGAAGGUAGGGUAAGAAGGUUGCUUGG [JR_SS1_Sub088] (puzzle: Same State 1) ; which class holds it?
Response line: highest

Prompt line: Kindly state the category for this sequence: AGAGUGUAUCCACAGGAUAUGCGAGCCGACACAUGAGGAUCACCCAUGUAGUCCUAAAGGGCUGAGCAGAAGGGUGGUAAGGCUC [Xelear] (puzzle: Same State 2)
Response line: lowest

Prompt line: Quick check: band for UGGAUCUAGGCUUGCCUGGGUCCAUGUUGACAUGAGGAUCACCCAUGUGUAUUCUAUAAGCUUUUUGUUUGUCAACU (puzzle: Sensor for hsa-mir-208a)
Response line: middle

More entries:
Prompt line: Class (by measured apparent KD of MS2 coat protein) for UAAGAACAUGAGGAUCACCCAUGUGGAAAGAACACAGGAUAUCAUAGUAGAACGAGACUAUGAGAAGGGUGACACG [Texeistean] (puzzle: Same State 1)
Response line: highest

* * *

apparent KD of MS2 coat protein by entry:
Tested on: MS2 coat protein
Assay: apparent KD of MS2 coat protein; designed switch direction (-1 OFF switch, 1 ON switch): -1; higher = weaker reporter binding
Conditions: input ligand: FMN 200 uM
// return numeric value only (unit: nM, not printed)

Prompt line: Find apparent KD of MS2 coat protein for AGGUCCUUCUGGACACAUGAGGAUCACCCAUGUGCGGUCAGCGAGGAUAUCGGUCUAUAAUGUGACGAGAAGGCGCGGACCGAU [Ex NG3 #60] (Eterna round: R96, puzzle: Exclusion NG 3) on MS2 coat protein and write it down.
Response line: 38.9

Prompt line: Write down measured apparent KD of MS2 coat protein (MS2 coat protein) for this sequence. AGCCCUGCAGGAUAUGCCGAGGAUAACAUGAGGAUCACCCAUGUGACCGAUUGUUAGACUGCAGAAGGGCAUGGGA [salish99_ex5_r4_303] (Eterna round: R97, puzzle: Exclusion 5)
Response line: 81.7

Prompt line: Answer briefly: apparent KD of MS2 coat protein recorded on MS2 coat protein for CGGUGCUUGUGGAAACAUGAGGAUCACCCAUGUUGAGUUAGCGAGGAUAUCGGUAACACAUGUCACGAGAAGGCGCGAACCAGA [Ex NG3 #33] (Eterna round: R96, puzzle: Exclusion NG 3)
Response line: 39.6

Prompt line: State apparent KD of MS2 coat protein (MS2 coat protein) of CUUGAGCAGGUAGGAUAUACGAUGUGUCGGCGAGUAGAAGGACCUGCGAUCCACUUGAGGAUCACCCAAGUUCGCAGGAGAACA [Mutated MS2 EX1.18] (Eterna round: R96, puzzle: Exclusion NG 1) .
Response line: 103

---
Prompt line: Name the value of apparent KD of MS2 coat protein reported for UCCCGGGUAGGAUAUGCUAGGGUAUGUUCACUUGAUUUAGGACAUGAGGAUCACCCAUGUAGAAGGGCCCGUCG [Eternabot (L1) Solution 25] (Eterna round: R97, puzzle: Exclusion 2) when tested on MS2 coat protein.
Response line: 286
